- study system: Peroxisome proliferator-activated receptor gamma (Homo sapiens, UniProt P37231)
- Sequence (P37231 whole entry): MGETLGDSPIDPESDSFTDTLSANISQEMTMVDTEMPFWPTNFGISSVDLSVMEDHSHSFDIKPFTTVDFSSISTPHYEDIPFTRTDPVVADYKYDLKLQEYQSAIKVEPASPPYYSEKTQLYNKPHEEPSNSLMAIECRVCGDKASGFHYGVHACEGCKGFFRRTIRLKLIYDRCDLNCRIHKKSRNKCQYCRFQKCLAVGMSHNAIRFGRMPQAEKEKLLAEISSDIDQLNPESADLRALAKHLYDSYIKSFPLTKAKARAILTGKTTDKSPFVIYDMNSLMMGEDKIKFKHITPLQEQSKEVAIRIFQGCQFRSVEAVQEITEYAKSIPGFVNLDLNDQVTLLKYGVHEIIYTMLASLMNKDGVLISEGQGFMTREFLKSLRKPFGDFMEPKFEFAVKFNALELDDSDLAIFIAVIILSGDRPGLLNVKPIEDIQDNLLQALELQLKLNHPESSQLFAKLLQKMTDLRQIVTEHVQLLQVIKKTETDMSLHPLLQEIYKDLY
- procedure text: Agonist activity at human PPARgamma
# EC50 per record follows
Note: state the figure and append the unit.

Known EC50 results, listed for orientation:
1) CCCCc1nc(C(C)C)c(CC(=O)O)c(=O)n1Cc1ccc(-c2ccccc2-c2noc(=O)[nH]2)cc1: 10.3 µM
2) CCCCc1nc(C)c(CC(=O)OC(C)C)c(=O)n1Cc1ccc(-c2ccccc2-c2noc(=O)[nH]2)cc1: 1.66 µM
3) CCCCc1nc(C(C)C)c(CC(=O)OCC(F)(F)F)c(=O)n1Cc1ccc(-c2ccccc2-c2noc(=O)[nH]2)cc1: 2.78 µM
4) CCCCc1nc(C)c(CC(=O)OC2CC2)c(=O)n1Cc1ccc(-c2ccccc2-c2noc(=O)[nH]2)cc1: 3.31 µM
5) CCCCc1nc(C(C)C)c(CC(=S)N2CCCC2)c(=O)n1Cc1ccc(-c2ccccc2-c2noc(=O)[nH]2)cc1: 3.1 µM

EC50 for `CCCCCOC(=O)Cc1c(C(C)C)nc(CCCC)n(Cc2ccc(-c3ccccc3-c3noc(=O)[nH]3)cc2)c1=O` is 1.09 µM

EC50 for `CCCCc1nc(C)c(CC(=O)OC)c(=O)n1Cc1ccc(-c2ccccc2-c2noc(=O)[nH]2)cc1` is 7.36 µM

----------
- procedure text: Stability in rat liver microsomes assessed as parent compound remaining after 30 mins
- Type: ADME, Microsome
- study conditions: read-out: Stability
experimental readout: remaining at 0.5 h
Note: state the figure and append the unit.

Known remaining at 0.5 h results, listed for orientation:
1) CCCCc1nc(C(C)C)c(C(C)C(=O)OCC)c(=O)n1Cc1ccc(-c2ccccc2-c2noc(=O)[nH]2)cc1 (centres undefined): 19.2%
2) CCCCc1nc(C(C)C)c(CC(=O)OCC)c(=O)n1Cc1ccc(-c2ccccc2-c2noc(=O)[nH]2)cc1: 4.1%
3) CCCCc1nc(C)c(CC(=O)OCC)c(=O)n1Cc1ccc(-c2ccccc2-c2noc(=O)[nH]2)cc1: 14.3%

// moving on: another record for remaining at 0.5 h
remaining at 0.5 h for `[2H]C([2H])(C(=O)OCC)c1c(C)nc(CCCC)n(Cc2ccc(-c3ccccc3-c3noc(=O)[nH]3)cc2)c1=O` is 87.3%

----------
- study system: CYP2C9 (Homo sapiens)
- Sequence (P11712 whole entry): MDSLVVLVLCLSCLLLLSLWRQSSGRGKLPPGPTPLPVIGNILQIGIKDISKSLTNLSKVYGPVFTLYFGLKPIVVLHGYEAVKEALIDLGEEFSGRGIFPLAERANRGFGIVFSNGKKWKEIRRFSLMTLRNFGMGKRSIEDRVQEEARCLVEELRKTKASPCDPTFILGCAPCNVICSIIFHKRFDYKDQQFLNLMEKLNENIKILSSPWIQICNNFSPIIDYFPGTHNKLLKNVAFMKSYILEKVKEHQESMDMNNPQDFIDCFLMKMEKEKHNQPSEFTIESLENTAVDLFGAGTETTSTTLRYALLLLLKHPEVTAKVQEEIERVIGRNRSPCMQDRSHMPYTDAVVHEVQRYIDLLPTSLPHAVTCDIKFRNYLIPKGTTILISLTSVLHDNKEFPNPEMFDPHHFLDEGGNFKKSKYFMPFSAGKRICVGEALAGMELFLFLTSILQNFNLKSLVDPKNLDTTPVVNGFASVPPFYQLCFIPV
- procedure text: Inhibition of CYP2C9 (unknown origin) assessed as residual activity at 10 uM relative to control
- Format: ADME
- study conditions: read-out: Activity
experimental readout: activity at 10 µM (%)
Write down the numeric answer in % and omit the unit.

activity at 10 µM for `CCCCc1nc(C(C)C)c(CC(=O)OCC)c(=O)n1Cc1ccc(-c2ccccc2-c2noc(=O)[nH]2)cc1` is 23

----------
- study system: Type-1 angiotensin II receptor (Homo sapiens)
- Sequence (P30556 whole entry): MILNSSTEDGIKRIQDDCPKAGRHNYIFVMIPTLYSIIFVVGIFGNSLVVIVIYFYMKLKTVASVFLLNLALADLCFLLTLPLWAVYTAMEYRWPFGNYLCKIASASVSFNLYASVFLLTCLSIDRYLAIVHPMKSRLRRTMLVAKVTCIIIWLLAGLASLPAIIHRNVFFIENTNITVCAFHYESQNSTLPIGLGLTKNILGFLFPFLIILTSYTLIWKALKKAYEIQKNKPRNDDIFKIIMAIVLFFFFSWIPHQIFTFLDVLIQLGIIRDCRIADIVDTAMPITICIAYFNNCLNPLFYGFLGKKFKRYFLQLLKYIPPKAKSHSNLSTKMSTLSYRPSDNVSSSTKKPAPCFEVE
- procedure text: Antagonist activity at type-1 angiotensin 2 receptor (unknown origin) by calcium mobilizing assay
experimental readout: pIC50
Please report pIC50 as the negative decimal logarithm of the molar concentration, giving only the number.

pIC50 for `CCCCc1nc(C(C)C)c(CC(=S)N2CCCC2)c(=O)n1Cc1ccc(-c2ccccc2-c2noc(=O)[nH]2)cc1` is 8.66
